Cited source for all entries: patent US8158656B2

- Tested on: total HDAC enzyme
- test_summary: Total HDAC enzyme activity, HDAC Fluorimetric Assay (HeLa extract)
- Assay type: biochemical, human
metric_name: % inhibition of total HDAC enzyme activity at 30 μM (%)

[
  {
    "compound": "Cc1[nH]c(/C=N/N=C2\\C(=O)Nc3ccc(F)cc32)c(C)c1C(=O)NCCCNc1ccc(C(=O)Nc2ccc(F)cc2N)cn1 [Example 17]",
    "unit_info": "%",
    "readout_value": 4.00
  },
  {
    "compound": "Cc1[nH]c(/C=C2\\C(=O)Nc3ccc(F)cc32)c(C)c1C(=O)NCCNc1ccc(C(=O)Nc2ccc(F)cc2N)cn1 [Example 13]",
    "unit_info": "%",
    "readout_value": "−2.60"
  },
  {
    "compound": "Cc1[nH]c(/C=N/N=C2\\C(=O)Nc3ccc(F)cc32)c(C)c1C(=O)NCCNc1ccc(C(=O)Nc2ccc(F)cc2N)cn1 [Example 14]",
    "unit_info": "%",
    "readout_value": 1.00
  },
  {
    "compound": "Cc1[nH]c(/C=C2\\C(=O)Nc3ccc(F)cc32)c(C)c1C(=O)NCCCNc1ccc(C(=O)Nc2ccccc2N)cn1 [Example 6]",
    "unit_info": "%",
    "readout_value": 12.50
  },
  {
    "compound": "Cc1[nH]c(/C=C2\\C(=O)Nc3ccc(F)cc32)c(C)c1C(=O)NCCCCNc1ccc(C(=O)Nc2ccc(F)cc2N)cn1 [Example 19]",
    "unit_info": "%",
    "readout_value": 7.30
  }
]

----------
- tgt: HDAC7 (Homo sapiens, UniProt Q8WUI4)
- Construct: endogenous in cells
- Sequence (Q8WUI4 whole entry): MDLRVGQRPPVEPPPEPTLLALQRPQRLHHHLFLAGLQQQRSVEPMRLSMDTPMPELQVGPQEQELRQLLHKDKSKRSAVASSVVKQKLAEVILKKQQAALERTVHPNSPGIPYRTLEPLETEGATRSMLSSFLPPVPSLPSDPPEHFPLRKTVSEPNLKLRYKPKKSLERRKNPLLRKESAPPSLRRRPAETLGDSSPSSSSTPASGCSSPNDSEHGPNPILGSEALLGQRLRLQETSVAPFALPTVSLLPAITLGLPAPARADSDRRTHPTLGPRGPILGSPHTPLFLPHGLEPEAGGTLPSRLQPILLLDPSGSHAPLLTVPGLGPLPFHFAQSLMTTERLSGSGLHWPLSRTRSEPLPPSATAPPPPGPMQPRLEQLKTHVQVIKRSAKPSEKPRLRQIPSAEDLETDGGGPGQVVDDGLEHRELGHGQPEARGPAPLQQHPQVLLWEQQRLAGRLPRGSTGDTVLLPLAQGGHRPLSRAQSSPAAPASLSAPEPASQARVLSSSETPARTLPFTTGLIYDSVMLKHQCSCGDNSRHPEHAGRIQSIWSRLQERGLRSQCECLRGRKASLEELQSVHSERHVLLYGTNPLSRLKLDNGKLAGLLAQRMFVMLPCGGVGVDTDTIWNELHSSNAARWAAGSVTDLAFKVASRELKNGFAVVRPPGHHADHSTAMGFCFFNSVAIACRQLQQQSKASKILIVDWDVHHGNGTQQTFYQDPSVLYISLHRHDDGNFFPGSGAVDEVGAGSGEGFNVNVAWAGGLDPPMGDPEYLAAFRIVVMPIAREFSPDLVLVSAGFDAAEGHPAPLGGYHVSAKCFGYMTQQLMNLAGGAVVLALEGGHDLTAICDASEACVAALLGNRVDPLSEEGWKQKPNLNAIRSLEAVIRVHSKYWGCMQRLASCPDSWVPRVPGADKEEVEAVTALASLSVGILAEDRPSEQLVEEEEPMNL
- test_summary: Nur77 reporter assay in HeLa cells
- condition_label: 24 hours
- Method: HDAC subtype selectivity inhibition assay of tested compounds was carried out by several reporter gene assays experiments. Briefly, HeLa cells were seeded in 96-well plates the day before transfection to give a confluence of 50-80%. Cells were transfected with one of reporter gene plasmid containing a promoter sequence or response element upstream of a luciferase gene construct using FuGene6 transfection reagent according to the manufacturer's instruction (Roche). […]

[
  {
    "compound": "Cc1[nH]c(/C=C2\\C(=O)Nc3ccc(F)cc32)c(C)c1C(=O)NCCCNc1ccc(C(=O)Nc2ccccc2N)cn1 [Example 6]",
    "EC50": "2500 nM"
  },
  {
    "compound": "Cc1[nH]c(/C=C2\\C(=O)Nc3ccc(F)cc32)c(C)c1C(=O)NCCNc1ccc(C(=O)Nc2ccccc2N)cn1 [Example 3]",
    "EC50": "2900 nM"
  },
  {
    "compound": "Cc1[nH]c(/C=C2\\C(=O)Nc3ccc(F)cc32)c(C)c1C(=O)NCCCCNc1ccc(C(=O)Nc2ccccc2N)cn1 [Example 9]",
    "EC50": "13200 nM"
  }
]

----------
- Tested on: total HDAC enzyme
- test_summary: Total HDAC enzyme activity, HDAC Fluorimetric Assay (HeLa extract)
- Type: biochemical, human
metric_name: % inhibition of total HDAC enzyme activity at 30 μM (%)

[
  {
    "compound": "Cc1[nH]c(/C=N/N=C2\\C(=O)Nc3ccc(F)cc32)c(C)c1C(=O)NCCCCNc1ccc(C(=O)Nc2ccccc2N)cn1 [Example 10]",
    "unit_info": "%",
    "readout_value": 6.10
  },
  {
    "compound": "Cc1[nH]c(/C=N/N=C2\\C(=O)Nc3ccc(F)cc32)c(C)c1C(=O)NCCCNc1ccc(C(=O)Nc2ccccc2N)cn1 [Example 7]",
    "unit_info": "%",
    "readout_value": 7.80
  },
  {
    "compound": "Cc1[nH]c(/C=N/N=C2\\C(=O)Nc3ccc(F)cc32)c(C)c1C(=O)NCCCCNc1ccc(C(=O)Nc2ccc(F)cc2N)cn1 [Example 20]",
    "unit_info": "%",
    "readout_value": 3.50
  },
  {
    "compound": "Cc1[nH]c(/C=C2\\C(=O)Nc3ccc(F)cc32)c(C)c1C(=O)NCCCCNc1ccc(C(=O)Nc2ccccc2N)cn1 [Example 9]",
    "unit_info": "%",
    "readout_value": 6.30
  },
  {
    "compound": "Cc1[nH]c(/C=C2\\C(=O)Nc3ccc(F)cc32)c(C)c1C(=O)NCCNc1ccc(C(=O)Nc2ccccc2N)cn1 [Example 3]",
    "unit_info": "%",
    "readout_value": 9.20
  },
  {
    "compound": "Cc1[nH]c(/C=N/N=C2\\C(=O)Nc3ccc(F)cc32)c(C)c1C(=O)NCCNc1ccc(C(=O)Nc2ccccc2N)cn1 [Example 4]",
    "unit_info": "%",
    "readout_value": 6.90
  },
  {
    "compound": "Cc1[nH]c(/C=C2\\C(=O)Nc3ccc(F)cc32)c(C)c1C(=O)NCCCNc1ccc(C(=O)Nc2ccc(F)cc2N)cn1 [Example 16]",
    "unit_info": "%",
    "readout_value": 6.70
  }
]

----------
- Test system: HCT-8
- test_summary: Tumor cell proliferation (MTS), HCT-8
- Format: cell-based
- condition_label: Homo sapiens, HCT-8, 72 hours
metric_name: GI50

[
  {
    "compound": "Cc1[nH]c(/C=N/N=C2\\C(=O)Nc3ccc(F)cc32)c(C)c1C(=O)NCCCCNc1ccc(C(=O)Nc2ccc(F)cc2N)cn1",
    "tgt": "HCT-8",
    "metric_name": "GI50",
    "readout_value": "> 60 µM"
  },
  {
    "compound": "Cc1[nH]c(/C=C2\\C(=O)Nc3ccc(F)cc32)c(C)c1C(=O)NCCCCNc1ccc(C(=O)Nc2ccccc2N)cn1",
    "tgt": "HCT-8",
    "metric_name": "GI50",
    "readout_value": "> 60 µM"
  },
  {
    "compound": "CCN(CC)CCNC(=O)c1c(C)[nH]c(/C=C2\\C(=O)Nc3ccc(F)cc32)c1C [Sutent, reference compound]",
    "tgt": "HCT-8",
    "metric_name": "GI50",
    "readout_value": "12.2 µM"
  },
  {
    "compound": "Cc1[nH]c(/C=N/N=C2\\C(=O)Nc3ccc(F)cc32)c(C)c1C(=O)NCCCNc1ccc(C(=O)Nc2ccc(F)cc2N)cn1",
    "tgt": "HCT-8",
    "metric_name": "GI50",
    "readout_value": "> 60 µM"
  },
  {
    "compound": "Cc1[nH]c(/C=C2\\C(=O)Nc3ccc(F)cc32)c(C)c1C(=O)NCCNc1ccc(C(=O)Nc2ccccc2N)cn1",
    "tgt": "HCT-8",
    "metric_name": "GI50",
    "readout_value": "> 60 µM"
  },
  {
    "compound": "Cc1[nH]c(/C=N/N=C2\\C(=O)Nc3ccc(F)cc32)c(C)c1C(=O)NCCCCNc1ccc(C(=O)Nc2ccccc2N)cn1",
    "tgt": "HCT-8",
    "metric_name": "GI50",
    "readout_value": "> 60 µM"
  },
  {
    "compound": "CNC(=O)c1cc(Oc2ccc(NC(=O)Nc3ccc(Cl)c(C(F)(F)F)c3)cc2)ccn1 [Sorafinib, reference compound]",
    "tgt": "HCT-8",
    "metric_name": "GI50",
    "readout_value": "5.35 µM"
  },
  {
    "compound": "Cc1[nH]c(/C=C2\\C(=O)Nc3ccc(F)cc32)c(C)c1C(=O)NCCCNc1ccc(C(=O)Nc2ccccc2N)cn1",
    "tgt": "HCT-8",
    "metric_name": "GI50",
    "readout_value": "> 60 µM"
  },
  {
    "compound": "Cc1[nH]c(/C=C2\\C(=O)Nc3ccc(F)cc32)c(C)c1C(=O)NCCNc1ccc(C(=O)Nc2ccc(F)cc2N)cn1",
    "tgt": "HCT-8",
    "metric_name": "GI50",
    "readout_value": "> 60 µM"
  },
  {
    "compound": "Cc1[nH]c(/C=N/N=C2\\C(=O)Nc3ccc(F)cc32)c(C)c1C(=O)NCCCNc1ccc(C(=O)Nc2ccccc2N)cn1",
    "tgt": "HCT-8",
    "metric_name": "GI50",
    "readout_value": "> 60 µM"
  },
  {
    "compound": "Cc1[nH]c(/C=C2\\C(=O)Nc3ccc(F)cc32)c(C)c1C(=O)NCCCNc1ccc(C(=O)Nc2ccc(F)cc2N)cn1",
    "tgt": "HCT-8",
    "metric_name": "GI50",
    "readout_value": "> 60 µM"
  }
]

----------
Readings of GI50 for the listed compounds
- System: Jurkat
- test_summary: Tumor cell proliferation (MTS), Jurkat
- Format: cell-based
- condition_label: Homo sapiens, 72 hours
metric_name: GI50

[
  {
    "compound": "CNC(=O)c1cc(Oc2ccc(NC(=O)Nc3ccc(Cl)c(C(F)(F)F)c3)cc2)ccn1 [Sorafinib, reference compound]",
    "metric_name": "GI50",
    "readout_value": "16.9 µM"
  },
  {
    "compound": "Cc1[nH]c(/C=N/N=C2\\C(=O)Nc3ccc(F)cc32)c(C)c1C(=O)NCCCCNc1ccc(C(=O)Nc2ccccc2N)cn1",
    "metric_name": "GI50",
    "readout_value": "> 60 µM"
  },
  {
    "compound": "Cc1[nH]c(/C=N/N=C2\\C(=O)Nc3ccc(F)cc32)c(C)c1C(=O)NCCNc1ccc(C(=O)Nc2ccccc2N)cn1",
    "metric_name": "GI50",
    "readout_value": "> 60 µM"
  },
  {
    "compound": "Cc1[nH]c(/C=C2\\C(=O)Nc3ccc(F)cc32)c(C)c1C(=O)NCCNc1ccc(C(=O)Nc2ccccc2N)cn1",
    "metric_name": "GI50",
    "readout_value": "> 60 µM"
  },
  {
    "compound": "CCN(CC)CCNC(=O)c1c(C)[nH]c(/C=C2\\C(=O)Nc3ccc(F)cc32)c1C [Sutent, reference compound]",
    "metric_name": "GI50",
    "readout_value": "7.05 µM"
  },
  {
    "compound": "Cc1[nH]c(/C=C2\\C(=O)Nc3ccc(F)cc32)c(C)c1C(=O)NCCNc1ccc(C(=O)Nc2ccc(F)cc2N)cn1",
    "metric_name": "GI50",
    "readout_value": "> 60 µM"
  },
  {
    "compound": "Cc1[nH]c(/C=N/N=C2\\C(=O)Nc3ccc(F)cc32)c(C)c1C(=O)NCCCCNc1ccc(C(=O)Nc2ccc(F)cc2N)cn1",
    "metric_name": "GI50",
    "readout_value": "> 60 µM"
  }
]
